- Assay System: human p38 kinase alpha (Homo sapiens, UniProt Q16539)
- Construct: GST (N, cleaved yes); made in house; host or cells: E. coli DH10B
- Sequence (Q16539 whole entry): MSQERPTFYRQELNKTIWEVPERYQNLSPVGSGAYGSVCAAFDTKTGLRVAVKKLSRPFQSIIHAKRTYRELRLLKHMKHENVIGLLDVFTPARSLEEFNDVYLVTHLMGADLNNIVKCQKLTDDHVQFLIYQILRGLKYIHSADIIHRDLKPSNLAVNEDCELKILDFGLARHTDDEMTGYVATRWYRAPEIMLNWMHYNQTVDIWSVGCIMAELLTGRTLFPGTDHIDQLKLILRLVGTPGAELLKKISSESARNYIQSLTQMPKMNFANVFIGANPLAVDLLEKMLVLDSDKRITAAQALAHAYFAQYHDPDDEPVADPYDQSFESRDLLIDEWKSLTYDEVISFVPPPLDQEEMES
- Test Description: p38 kinase in vitro assay, phosphorylation of biotinylated PHAS-I with 32P-ATP
- Type: biochemical
- Reported Conditions: @ 100.0 uM
# cutoff 60 % @ applies to P38 alpha kinase % inhib @ conc.; >= gives condition met, < gives condition not met

Sample answers from the record:
1) Cc1c(-c2ccncc2)c(-c2ccc(F)cc2)nn1CC(=O)N1CCC[C@H]1CN1CCCC1    condition not met
2) C=CCN(C(=O)Cn1nc(-c2ccc(F)cc2)c(-c2ccncc2)c1C)C1CCCCC1    condition not met
3) CCN(Cc1ccncc1)C(=O)Cn1nc(-c2ccc(F)cc2)c(-c2ccncc2)c1C    condition met
4) Cc1c(-c2ccncc2)c(-c2ccc(F)cc2)nn1CC(=O)N(CC(C)C)CC(C)C    condition not met
5) Cc1c(-c2ccncc2)c(-c2ccc(F)cc2)nn1CC(=O)N(C)CCN(C)C    condition met

Problem: Quick check: does CC(=O)N1CCN(C(=O)Cn2nc(-c3ccc(F)cc3)c(-c3ccncc3)c2C)CC1 have P38 alpha kinase % inhib @ conc. greater than or equal to 60 % @?
Result: condition met

Problem: And Cc1c(-c2ccncc2)c(-c2ccc(F)cc2)nn1CC(=O)N(C)Cc1ccccc1 ?
Result: condition met

Problem: And Cc1c(-c2ccncc2)c(-c2ccc(F)cc2)nn1CC(=O)N1CCCC1 ?
Result: condition met
